Measurement record for wild-type HIV-1 protease (Human immunodeficiency virus type 1 group M subtype B); quantity recorded: pIC50.
Note: pIC50 values are expressed as the negative base-10 logarithm of concentration in M.

**Query** Consider the compound N=C1NC(c2ccc(F)cc2)(c2cccc(Br)c2)C(=O)N1Cc1cccc(C(=O)N2Cc3ccccc3C2)c1 (centres unmarked) . State its measured pIC50.
**Result** 7.44

**Query** Consider the compound `N=C1NC(c2ccccc2)(c2ccccc2)C(=O)N1Cc1ccc(F)c(C(=O)N2Cc3cccnc3C2)c1` . State its measured pIC50.
**Result** 7.55

**Query** Consider the compound `N=C1NC(c2ccccc2)(c2ccccc2)C(=O)N1Cc1ccc(F)c(C(=O)N2Cc3nccnc3C2)c1` . State its measured pIC50.
**Result** 7.97

**Query** Consider the compound `N=C1NC(c2ccccc2)(c2ccccc2)C(=O)N1Cc1cccc(C(=O)N2CCc3nccnc3C2)c1` . State its measured pIC50.
**Result** 7.40

**Query** Consider the compound `N=C1NC(c2ccc(F)cc2)(c2ccc(F)cc2)C(=O)N1Cc1cccc(C(=O)N2Cc3nccnc3C2)c1` . State its measured pIC50.
**Result** 7.85

**Query** Consider the compound `N=C1N[C@](CCCC(F)(F)F)(c2ccc(F)cc2)C(=O)N1Cc1ccc(C(F)(F)F)c(C(=O)N2CCN(c3cccnc3)CC2)c1` . State its measured pIC50.
**Result** 7.58

**Query** Consider the compound `N=C1NC(c2ccccc2)(c2ccccc2)C(=O)N1Cc1cccc(C(=O)N2CCN(c3ccccc3)CC2)c1` . State its measured pIC50.
**Result** 7.24

**Query** Consider the compound CC(C)CCC1(c2ccc(F)cc2)NC(=N)N(Cc2ccc(C(F)(F)F)c(C(=O)N3CCc4c(cnn4-c4ccccc4)C3)c2)C1=O (centres unmarked) . State its measured pIC50.
**Result** 7.47

**Query** Consider the compound `CCc1nnc2n1CCN(C(=O)c1cccc(CN3C(=N)NC(c4ccccc4)(c4ccccc4)C3=O)c1)C2` . State its measured pIC50.
**Result** 7.04

**Query** Consider the compound `CC(C)CC[C@]1(c2ccccc2)NC(=N)N([C@H](C)c2cccc(C(=O)N3Cc4cncnc4C3)c2)C1=O` . State its measured pIC50.
**Result** 7.99

**Query** Consider the compound CC(C)CC[C@]1(c2ccc(F)cc2)NC(=N)N(C(Cc2ccccc2)c2ccc(C(F)(F)F)c(C(=O)N3CCn4c(nnc4C(F)(F)F)C3)c2)C1=O (some centres unmarked) . State its measured pIC50.
**Result** 8.25

**Query** Consider the compound `N=C1N[C@](CCC2CC2)(c2ccc(F)cc2)C(=O)N1[C@@H]1CCCCc2ccc(C(=O)N3Cc4nccnc4C3)cc21` . State its measured pIC50.
**Result** 7.73

**Query** Consider the compound CC(C)CC1(c2ccccc2)NC(=N)N(Cc2ccc(C(F)(F)F)c(C(=O)N3CCC(F)(F)C3)c2)C1=O (centres unmarked) . State its measured pIC50.
**Result** 7.15

**Query** Consider the compound `N=C1N[C@](CCCC(F)(F)F)(c2ccc(F)cc2)C(=O)N1Cc1ccc(C(F)(F)F)c(C(=O)N2Cc3cnc(-c4cnn(CCO)c4)nc3C2)c1` . State its measured pIC50.
**Result** 8.88

====

# tested on: wild-type HIV-1 protease (Human immunodeficiency virus type 1 group M subtype B, UniProt P04585)
recorded metric: pIC50
Note: pIC50 values are expressed as the negative base-10 logarithm of concentration in M.

**Query** Consider the molecule N#Cc1ncc2c(n1)CN(C(=O)c1cc(CN3C(=N)NC(c4ccc(F)cc4)(c4ccc(F)cc4)C3=O)ccc1C(F)(F)F)C2 [Compound 134] . State its measured pIC50.
**Result** 8.97

**Query** Consider the molecule COC(=O)N1CCN(C(=O)c2cccc(CN3C(=N)NC(CCC(C)C)(c4ccccc4)C3=O)c2)CC1 (stereo not shown) [Compound 255] . State its measured pIC50.
**Result** 7.68

**Query** Consider the molecule N=C1NC(c2ccc(F)cc2)(c2ccc(F)cc2)C(=O)N1Cc1ccc(F)c(C(=O)N2Cc3nccnc3C2)c1 [Compound 382] . State its measured pIC50.
**Result** 7.88

**Query** Consider the molecule COc1ccc2c(c1)CCN(C(=O)c1cc(CN3C(=N)NC(c4ccc(F)cc4)(c4ccc(F)cc4)C3=O)ccc1C(F)(F)F)CC2 [Compound 165] . State its measured pIC50.
**Result** 7.47

**Query** Consider the molecule N#Cc1ncc2c(n1)CN(C(=O)c1cc(CN3C(=N)NC(c4ccccc4)(c4ccccc4)C3=O)ccc1C(F)(F)F)C2 [Compound 136] . State its measured pIC50.
**Result** 8.74

**Query** Consider the molecule COC(=O)N1CCN(C(=O)c2cccc(CN3C(=N)NC(c4ccccc4)(c4ccccc4)C3=O)c2)CC1 [Compound 330] . State its measured pIC50.
**Result** 7.17

**Query** Consider the molecule N=C1N[C@](CCCC(F)(F)F)(c2ccc(F)cc2)C(=O)N1Cc1ccc(C(F)(F)F)c(C(=O)N2CCN(c3ccccn3)CC2)c1 [Compound 99] . State its measured pIC50.
**Result** 7.67

**Query** Consider the molecule CC(C)CC1(c2cccc(F)c2)NC(=N)N(Cc2cccc(C(=O)N3Cc4nccnc4C3)c2)C1=O (stereo not shown) [Compound 210] . State its measured pIC50.
**Result** 8.04

**Query** Consider the molecule Cc1cc2c(cn1)CN(C(=O)c1cccc(CN3C(=N)NC(c4ccc(F)cc4)(c4ccc(F)cc4)C3=O)c1)C2 [Compound 226] . State its measured pIC50.
**Result** 7.91

**Query** Consider the molecule N=C1NC(c2ccccc2)(c2ccccc2)C(=O)N1Cc1cccc(C(=O)N2CCN(c3ncccn3)CC2)c1 [Compound 230] . State its measured pIC50.
**Result** 7.88

**Query** Consider the molecule N=C1N[C@](CCCC(F)(F)F)(c2ccc(F)cc2)C(=O)N1Cc1ccc(C(F)(F)F)c(C(=O)N2Cc3cnc(-c4cnn(-c5cccc(Cl)c5)c4)nc3C2)c1 [Compound 133] . State its measured pIC50.
**Result** 7.06

**Query** Consider the molecule CC1c2ccccc2CN1C(=O)c1cccc(CN2C(=N)NC(c3ccc(F)cc3)(c3ccc(F)cc3)C2=O)c1 (stereo not shown) [Compound 311] . State its measured pIC50.
**Result** 7.29

**Query** Consider the molecule COC(=O)Nc1ncc2c(n1)CN(C(=O)c1ccc3c(c1)[C@H](N1C(=N)N[C@](CCC(C)C)(c4ccccc4)C1=O)CC3)C2 [Compound 96] . State its measured pIC50.
**Result** 7.69

====

Measurement record for UniProt:P04585; quantity recorded: pIC50.
Note: pIC50 values are expressed as the negative base-10 logarithm of concentration in M.

**Query** Consider the molecule CC(C)CCC1(c2ccc(F)cc2)NC(=N)N(Cc2ccc(C(F)(F)F)c(C(=O)N3C[C@H]4OCc5cnnn5[C@H]4C3)c2)C1=O (stereo partly shown) tested on UniProt:P04585; state its pIC50.
**Result** 7.41

**Query** Consider the molecule CC(C)CCC1(c2ccc(F)cc2)NC(=N)N(Cc2ccc(C(F)(F)F)c(C(=O)N3Cc4nccnc4C3)c2)C1=O (stereo not shown) [Compound 168] tested on UniProt:P04585; state its pIC50.
**Result** 7.41

**Query** Consider the molecule `CSc1nnc2n1CCN(C(=O)c1cc(CN3C(=N)N[C@](CCCC(F)(F)F)(c4ccc(F)cc4)C3=O)ccc1C(F)(F)F)C2` tested on UniProt:P04585; state its pIC50.
**Result** 8.26

**Query** Consider the molecule CCOC(=O)c1nc2n(c1Cl)CCN(C(=O)c1cccc(CN3C(=N)NC(c4ccccc4)(c4ccccc4)C3=O)c1)C2 [Compound 247] tested on UniProt:P04585; state its pIC50.
**Result** 7.75

**Query** Consider the molecule N=C1NC(c2ccccc2)(c2ccccc2)C(=O)N1Cc1cccc(C(=O)N2CCn3c(nnc3C(F)(F)F)C2)c1 [Compound 329] tested on UniProt:P04585; state its pIC50.
**Result** 7.17

**Query** Consider the molecule `CC(C)C[C@]1(c2ccccc2)NC(=N)N(Cc2cnc(C(F)(F)F)c(C(=O)N3Cc4nccnc4C3)c2)C1=O` tested on UniProt:P04585; state its pIC50.
**Result** 8.07

**Query** Consider the molecule CC(C)CC1(c2ccccc2)NC(=N)N(Cc2cccc(C(=O)N3Cc4cccnc4C3)c2)C1=O (stereo not shown) tested on UniProt:P04585; state its pIC50.
**Result** 7.65

====

# tested on: wild-type HIV-1 protease (Human immunodeficiency virus type 1 group M subtype B, UniProt P04585)
recorded metric: pIC50
Note: pIC50 values are expressed as the negative base-10 logarithm of concentration in M.

**Query** Consider the molecule `N=C1NC(c2ccccc2)(c2ccccc2)C(=O)N1Cc1cc(C(=O)N2Cc3cncnc3C2)ccn1` . State its measured pIC50.
**Result** 7.50

**Query** Consider the molecule `CC(=O)c1cccc(-c2ncc3c(n2)CN(C(=O)c2cc(CN4C(=N)N[C@](CCCC(F)(F)F)(c5ccc(F)cc5)C4=O)ccc2C(F)(F)F)C3)c1` . State its measured pIC50.
**Result** 8.19

**Query** Consider the molecule `N=C1N[C@](CCCC(F)(F)F)(c2ccc(F)cc2)C(=O)N1Cc1ccc(C(F)(F)F)c(C(=O)N2Cc3cnc(-c4cccc(N5CCCC5)c4)nc3C2)c1` . State its measured pIC50.
**Result** 8.16

**Query** Consider the molecule `N=C1NC(c2ccc(F)cc2)(c2ccc(F)cc2)C(=O)N1Cc1cccc(C(=O)N2CCC(n3c(=O)[nH]c4ccccc43)CC2)c1` . State its measured pIC50.
**Result** 7.13

**Query** Consider the molecule N=C1N[C@](CCCC(F)(F)F)(c2ccc(F)cc2)C(=O)N1Cc1ccc(C(F)(F)F)c(C(=O)N2CCN3C(=O)OCC3C2)c1 (some centres unmarked) . State its measured pIC50.
**Result** 7.83

**Query** Consider the molecule N=C1NC(CCC2CC2)(c2cc(F)cc(F)c2)C(=O)N1Cc1ccc(C(F)(F)F)c(C(=O)N2CCn3c(nnc3C(F)(F)F)C2)c1 (centres unmarked) [Compound 91] . State its measured pIC50.
**Result** 7.79

**Query** Consider the molecule `N=C1NC(c2ccc(F)cc2)(c2ccc(F)cc2)C(=O)N1Cc1cccc(C(=O)N2Cc3cccc(F)c3C2)c1` . State its measured pIC50.
**Result** 7.50

**Query** Consider the molecule CC(C)CC1(c2ccccc2)NC(=N)N(Cc2cccc(C(=O)N3Cc4nccnc4C3)c2)C1=O (centres unmarked) . State its measured pIC50.
**Result** 7.84

**Query** Consider the molecule `N=C1NC(c2ccccc2)(c2ccccc2)C(=O)N1Cc1cccc(C(=O)N2CCc3c(Cl)cccc3C2)c1` . State its measured pIC50.
**Result** 7.51

**Query** Consider the molecule `COc1cc(-c2ncc3c(n2)CN(C(=O)c2cc(CN4C(=N)N[C@](CCCC(F)(F)F)(c5ccc(F)cc5)C4=O)ccc2C(F)(F)F)C3)ccn1` . State its measured pIC50.
**Result** 8.25

**Query** Consider the molecule `CN1CCN(C(=O)c2cccc(CN3C(=N)NC(c4ccccc4)(c4ccccc4)C3=O)c2)CC1=O` . State its measured pIC50.
**Result** 7.03

**Query** Consider the molecule CC(C)CC[C@]1(c2ccc(F)cc2)NC(=N)N(C(Cc2ccccc2)c2ccc(C(F)(F)F)c(C(=O)N3Cc4nccnc4C3)c2)C1=O (some centres unmarked) [Compound 6] . State its measured pIC50.
**Result** 9.59

**Query** Consider the molecule COC(=O)C1c2ccccc2CN1C(=O)c1cccc(CN2C(=N)NC(c3ccccc3)(c3ccccc3)C2=O)c1 (centres unmarked) . State its measured pIC50.
**Result** 7.47

**Query** Consider the molecule `C[C@H](c1cccc(C(=O)N2Cc3ccccc3C2)c1)N1C(=N)NC(c2ccc(F)cc2)(c2ccc(F)cc2)C1=O` . State its measured pIC50.
**Result** 7.88

**Query** Consider the molecule CC(C)CC[C@]1(c2ccccc2)NC(=N)N(C(CC(C)C)c2ccc(C(F)(F)F)c(C(=O)N3Cc4nccnc4C3)c2)C1=O (some centres unmarked) [Compound 5] . State its measured pIC50.
**Result** 9.59

**Query** Consider the molecule `N#Cc1ncc2c(n1)CN(C(=O)c1cc(CN3C(=N)NC(c4ccccc4)(c4ccccc4)C3=O)ccc1F)C2` . State its measured pIC50.
**Result** 7.67

**Query** Consider the molecule CC(C)CCC1(c2cccc(-c3cccnc3)c2)NC(=N)N(Cc2cccc(C(=O)N3Cc4ccccc4C3)c2)C1=O (centres unmarked) . State its measured pIC50.
**Result** 7.53

**Query** Consider the molecule `CC(C)NC(=O)N1CCN(C(=O)c2cccc(CN3C(=N)NC(c4ccccc4)(c4ccccc4)C3=O)c2)CC1` . State its measured pIC50.
**Result** 7.23

**Query** Consider the molecule N=C1N[C@](CCCC(F)(F)F)(c2ccc(F)cc2)C(=O)N1Cc1ccc(C(F)(F)F)c(C(=O)N2CCN3c4ccccc4CC3C2)c1 (some centres unmarked) . State its measured pIC50.
**Result** 7.06

**Query** Consider the molecule `N=C1NC(c2ccccc2)(c2ccccc2)C(=O)N1Cc1ccc(C(F)(F)F)c(C(=O)N2Cc3cncnc3C2)c1` . State its measured pIC50.
**Result** 8.39

**Query** Consider the molecule `N=C1NC(c2ccc(F)cc2)(c2ccc(F)cc2)C(=O)N1Cc1cccc(C(=O)N2Cc3cc(Cl)c(Cl)cc3C2)c1` . State its measured pIC50.
**Result** 7.47

**Query** Consider the molecule CC(C)CC[C@]1(c2ccc(F)cc2)NC(=N)N(C(Cc2ccccc2)c2ccc(C(F)(F)F)c(C(=O)N3Cc4nccnc4C3)c2)C1=O (some centres unmarked) [Compound 4] . State its measured pIC50.
**Result** 9.70

**Query** Consider the molecule CC(C)CC1(c2ccccc2)NC(=N)N(Cc2ccc(C(F)(F)F)c(C(=O)N3CCN(C)C(=O)C3)c2)C1=O (centres unmarked) . State its measured pIC50.
**Result** 7.87

**Query** Consider the molecule CC(C)CC1(c2ccccc2)NC(=N)N(Cc2ccc(Cl)c(C(=O)N3Cc4nccnc4C3)c2)C1=O (centres unmarked) . State its measured pIC50.
**Result** 8.31

**Query** Consider the molecule N=C1N[C@](C[C@@H]2CCOC2)(c2ccccc2)C(=O)N1Cc1ccc(C(F)(F)F)c(C(=O)N2Cc3nccnc3C2)c1 [Compound 128] . State its measured pIC50.
**Result** 7.17

**Query** Consider the molecule `N=C1N[C@](CCCC(F)(F)F)(c2ccc(F)cc2)C(=O)N1Cc1ccc(C(F)(F)F)c(C(=O)N2Cc3cnc(NC4CCC4)nc3C2)c1` . State its measured pIC50.
**Result** 7.84
